Source of measurements: patent US20120207763A1

This section presents compounds with their documented pIC50 values.
biological target: JAK-3 (Homo sapiens); construct: GST fusion constructs of the kinase domains of both enzymes are used; GST; assay: JAK LANCE enzymatic assay (JAK-3); format: biochemical; details: Table A; read-out: Jak-3/ IC50
Sequence (P52333 822-1111 limits assumed): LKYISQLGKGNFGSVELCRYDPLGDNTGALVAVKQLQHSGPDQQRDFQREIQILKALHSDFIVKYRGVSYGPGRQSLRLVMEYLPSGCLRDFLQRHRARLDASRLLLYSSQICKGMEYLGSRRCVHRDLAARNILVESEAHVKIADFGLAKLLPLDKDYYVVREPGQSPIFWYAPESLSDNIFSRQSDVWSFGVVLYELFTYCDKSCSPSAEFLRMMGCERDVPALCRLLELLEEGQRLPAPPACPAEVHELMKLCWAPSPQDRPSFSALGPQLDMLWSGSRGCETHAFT
pIC50: −log10 of the molar value.

Study these solved cases before continuing.
Task: Any idea what pIC50 was measured for CCC(CC)N1C(=O)Cc2cnc(Nc3ccc(C(=O)NCCN(C)C)cc3)nc21 ?
Result: ≤ 7.00

Task: Further, for CCC(CC)N1C(=O)Cc2cnc(Nc3ccc(C(=O)N4CCN(C)CC4)cc3)nc21 ?
Result: ≤ 7.00

Task: Further, for CCC(CC)n1ccc2cnc(Nc3ccc(N4CCN(C(C)=O)CC4)cc3)nc21 [drawing 51] ?
Result: ≥ 7.00

Task: Further, for CCC(CC)N1C(=O)Cc2cnc(Nc3cc(C(=O)N4CCOCC4)ccc3F)nc21 ?
Result: ≤ 7.00

Proceeding to the next compound to report its pIC50.
Task: Any idea what pIC50 was measured for CCC(CC)N1C(=O)Cc2cnc(Nc3ccc(S(=O)(=O)N4CCN(C)CC4)cc3)nc21 ?
Result: ≤ 7.00
